Experiment: Cytotoxicity, MTT method
Details: human, PC-3 prostate cancer cells
measured_metric: pIC50
pIC50 here: minus log base 10 of the concentration, concentration in moles per litre.

Guide cases for pIC50, answers given:
>>> observed_measurement("CCCC(=O)O[C@H]1c2cc(C)cc(O)c2C(=O)C2=C(O)[C@H]3C=C[C@]21Cc1cc(O)c2c(c13)O[C@@]1(C(=O)OC)C(=C(O)CC[C@@H]1O)C2=O")
5.97
>>> observed_measurement("CCCC(=O)O[C@H]1c2cc(C)cc(O)c2C(=O)C2=C(O)[C@H]3C=C[C@]21Cc1cc(O)c2c(c13)O[C@@](C(=O)OC)([C@@H](O)CCC(=O)O)CC2=O")
5.30
>>> observed_measurement("COC(=O)[C@]12Oc3c(c(O)cc4c3[C@@H]3C=C[C@]5(C4)C(=C(O)c4c(O)cc(C)cc4[C@@H]5O)C3=O)C(=O)C1=C(O)CC[C@@H]2O")
5.50

Item under review: CCCC(=O)O[C@H]1c2cc(C)cc(O)c2C(=O)C2=C(O)[C@H]3C=C[C@]21Cc1cc(O)c2c(c13)O[C@@](C(=O)OC)([C@@H]1CCC(=O)O1)CC2=O . Reported pIC50? 5.27

Check CCCC(=O)O[C@H]1c2cc(C)cc(O)c2C(=O)C2=C(O)[C@H]3C=C[C@]21Cc1cc(O)c2c(c13)O[C@]1(C(=O)OC)C(=C(O)CC[C@@H]1O)C2=O too. 6.19

Values compiled from paper PMC7712541.
